All values here come from the Human Domainome abundance scans (Beltran et al. 2025).

B1: 3'-5' exoribonuclease 1, residues 65 to 114; numbered along this chain, Q8IV48 (parent)
chain: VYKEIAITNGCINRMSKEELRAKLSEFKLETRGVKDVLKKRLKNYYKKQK

Variants of: B1
Test Protocol: abundance fitness (aPCA) (normalised: wild type 0, dead -1); higher = more abundant; growth selection in yeast, the domain comes from the species named
Measurement Context: Homo sapiens
Quick reference for abundance fitness among some variants
Lab note: record just the number, no unit beside it.

- Residues: "VYKEPAITNGCINRMSKEELRAKLSEFKLETRGVKDVLKKRLKNYYKKQK [I5P]"
  abundance fitness: -0.003
- Residues: "VYKEIAITNGRINRMSKEELRAKLSEFKLETRGVKDVLKKRLKNYYKKQK [C11R]"
  abundance fitness: -0.074
- Residues: "VYKEIAITNGCINRMSKEELRAELSEFKLETRGVKDVLKKRLKNYYKKQK [K23E]"
  abundance fitness: -0.56
- Residues: "VYKEIAITNGCINRMSLEELRAKLSEFKLETRGVKDVLKKRLKNYYKKQK [K17L]"
  abundance fitness: -0.592
- Residues: "VYKEIAITNGCINRMSEEELRAKLSEFKLETRGVKDVLKKRLKNYYKKQK [K17E]"
  abundance fitness: -0.518

In: Recorded abundance fitness for VYKEIAITNGCIQRMSKEELRAKLSEFKLETRGVKDVLKKRLKNYYKKQK [N13Q] , please?
Out: -0.629

In: Field request: abundance fitness | item: VYKEIAITNGAINRMSKEELRAKLSEFKLETRGVKDVLKKRLKNYYKKQK [C11A]
Out: 0.046

In: # get_value(readout='abundance fitness', item= VYKEIAITNGCINRMSKEELRAKLSEFKLETRGNKDVLKKRLKNYYKKQK [V34N] )
Out: 0.039

In: So what's the measured abundance fitness for this one? VYKEIAITNGCINRMSKEELRAKLSDFKLETRGVKDVLKKRLKNYYKKQK [E26D]
Out: -0.119

In: Item under review: VYKEIAITNGCINRMSKEELRAKLSEFKLETRGVSDVLKKRLKNYYKKQK [K35S] . Reported abundance fitness?
Out: -0.48

In: Need abundance fitness, item VYKEIAITNGCINRMSKEELRVKLSEFKLETRGVKDVLKKRLKNYYKKQK [A22V]
Out: -0.048
